assay: splicing luciferase reporter signal modulators, primary screen, spliceosome inhibition project, cell-based, HEK293, splice +/- reporter (AID 1101); details: luminescence, 24 h, higher = more signal, called active from +8 up or from −8 down;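 also: HEK293 cells carrying a splicing-competent luciferase reporter gene; test concentration not given here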
# binarize z-score: threshold 0.4 inclusive, high side Fulfilled, low side Not fulfilled

{"MOLECULE": "COc1ccc(C(O)C2C=CC3C(=O)N(C)C(=O)C3N2N2CCCCC2)cc1OCc1ccccc1 (stereo not drawn)", "GROUP": "Not fulfilled"}
{"MOLECULE": "CN1C(=O)C2C=CC(C(O)C3CC=CCC3)N(Nc3ccccc3)C2C1=O (stereo not drawn)", "GROUP": "Fulfilled"}
{"MOLECULE": "COC(=O)[C@H]1[C@@H]2COc3ccccc3[C@H]2N[C@H]1C(=O)OC", "GROUP": "Not fulfilled"}
{"MOLECULE": "COc1ccc(-c2ccccc2[C@@H]2N[C@H](C(=O)O)CC[C@H]2C)cc1", "GROUP": "Not fulfilled"}
{"MOLECULE": "[N-]=[N+]=NCc1ccccc1[C@H]1OC(c2ccc(OCCCO)cc2)=N[C@@]1(Cc1ccccc1N=[N+]=[N-])C(=O)NCc1ccccc1", "GROUP": "Fulfilled"}
{"MOLECULE": "Cc1ccc(S[C@]2(C(=O)NC(C)C)CC(=O)N(Cc3cc(C(F)(F)F)cc(C(F)(F)F)c3)[C@@H]2c2ccc(CO)cc2I)cc1", "GROUP": "Not fulfilled"}
{"MOLECULE": "CC(C)[Si]1(C(C)C)O[C@@H](c2ccccc2)c2cc(C3CC3)nc(-c3ccc(Oc4ccccc4)cc3)c21", "GROUP": "Not fulfilled"}
{"MOLECULE": "C[N+](C)(C)CCCCNC(=O)[C@H]1C[C@H]2C(=O)NCC(=O)N2[C@H]1c1cccc(OCCO)c1", "GROUP": "Fulfilled"}

----------
Here the recorded composite z-score is given for each entry.
assay: small-molecule microarray binders of probe aWnt5a, primary screen, biochemical, biotinylated probe, 635/667 nm fluorescence (AID 1113); conditions: higher = more signal;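 also: score merges 667 nm fluorescence intensity with signal-to-noise per printed feature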
ATTRIBUTE MEASURED: composite z-score

{"MOLECULE": "CO[C@H]1O[C@H](CO)[C@@H](OC(=O)Nc2ccccc2)[C@H](OC(=O)Nc2ccc3c(c2)OCO3)[C@@H]1OC(=O)Nc1ccc2c(c1)OCO2", "ATTRIBUTE MEASURED": "composite z-score", "READING": -0.0944}
{"MOLECULE": "CN(C)C(=O)[C@@]1(Cc2ccccc2N=[N+]=[N-])N=C(c2ccc(OCCCO)cc2)O[C@H]1c1ccccc1CN=[N+]=[N-]", "ATTRIBUTE MEASURED": "composite z-score", "READING": 0.13}
{"MOLECULE": "Cc1cc(C)c(C(O)C2C=CC3C(=O)N(C)C(=O)C3N2N2CCCCC2)c(C)c1 (stereo not drawn)", "ATTRIBUTE MEASURED": "composite z-score", "READING": 0.0437}
{"MOLECULE": "CN1CCC(CCCO)=CC1C1CC1 (stereo not drawn)", "ATTRIBUTE MEASURED": "composite z-score", "READING": -0.172}
{"MOLECULE": "COc1ccc([Si](C)(C)[C@H]2[C@H](CC(=O)N3Cc4ccccc4C[C@H]3CO)O[C@@]3(C(=O)N(Cc4cccc(N5CCOC5=O)c4)c4ccccc43)[C@@H]2C)cc1", "ATTRIBUTE MEASURED": "composite z-score", "READING": -0.0731}
{"MOLECULE": "CO[C@H]1COC(=O)[C@@H](Cc2ccccc2)NC(=O)[C@@H](C)COC(=O)CC=C[C@@H]1C", "ATTRIBUTE MEASURED": "composite z-score", "READING": -0.133}
{"MOLECULE": "C[C@H]1NC(=O)[C@@H](C)NC(=O)[C@@]23C(=O)N[C@@H](Cc4ccccc4)C2[C@H](C)[C@@]2(C)O[C@H]2C3/C=C/C/C=C\\CNC1=O (stereo partly drawn)", "ATTRIBUTE MEASURED": "composite z-score", "READING": -0.0758}
{"MOLECULE": "O=C(N1CCCCC1)[C@@]1(CCS(=O)(=O)c2ccccc2)N=C(c2ccc(OCCCO)cc2)O[C@H]1c1ccccc1", "ATTRIBUTE MEASURED": "composite z-score", "READING": 0.212}
